Where do the numbers come from? From paper PMC11246588.

Listed next: entries and their corresponding AChE Selectivity Index.
target: AChE (Homo sapiens, UniProt P22303); construct: from tissue; host or cells: brain homogenate supernatant; assay: AChE inhibitory assay (Ellman-type, brain homogenate supernatant); assay type: biochemical; details: IC50 of BuChE/ IC50 of AChE
Sequence (P22303 32-614): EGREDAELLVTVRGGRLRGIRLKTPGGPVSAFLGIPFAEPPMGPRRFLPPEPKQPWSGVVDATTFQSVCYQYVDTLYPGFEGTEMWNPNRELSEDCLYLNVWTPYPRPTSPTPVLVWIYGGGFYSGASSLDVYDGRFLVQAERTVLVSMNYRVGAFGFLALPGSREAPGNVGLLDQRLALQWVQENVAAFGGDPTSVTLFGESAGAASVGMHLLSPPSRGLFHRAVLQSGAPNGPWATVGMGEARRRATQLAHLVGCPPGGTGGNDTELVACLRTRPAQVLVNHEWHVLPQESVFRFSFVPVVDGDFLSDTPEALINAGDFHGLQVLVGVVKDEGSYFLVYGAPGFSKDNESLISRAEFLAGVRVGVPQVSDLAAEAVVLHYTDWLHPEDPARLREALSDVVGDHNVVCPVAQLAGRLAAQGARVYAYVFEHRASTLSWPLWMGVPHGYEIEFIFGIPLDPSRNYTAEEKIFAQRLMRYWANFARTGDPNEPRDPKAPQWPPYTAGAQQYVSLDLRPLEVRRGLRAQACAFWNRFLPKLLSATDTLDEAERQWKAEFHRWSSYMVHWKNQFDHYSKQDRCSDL

Worked set:
>>> print(df.to_string())
                                chem_smiles       property_measured    val
0  O=C(COc1ccccc1-c1nc(Cc2ccccc2)no1)NNC(=O)c1ccc2ccccc2n1  AChE Selectivity Index    627
1  O=C(COc1ccccc1-c1nc(-c2ccc(C(F)(F)F)cc2)no1)NNC(=O)c1ccc2ccccc2n1  AChE Selectivity Index    894
2  O=C(COc1ccccc1-c1nc(Cc2ccccc2)no1)N/N=C\c1cnn(-c2ccccc2)n1  AChE Selectivity Index    735
3  O=C(COc1ccccc1-c1nc(-c2ccc(C(F)(F)F)cc2)no1)N/N=C\c1ccccc1[N+](=O)[O-]  AChE Selectivity Index  3,100
4  O=C(COc1ccccc1-c1nc(-c2ccccc2)no1)NN1C(=O)c2ccccc2C1=O  AChE Selectivity Index  1,010
5  O=C(COc1ccccc1-c1nc(-c2ccc(C(F)(F)F)cc2)no1)NN1C(=O)c2ccccc2C1=O  AChE Selectivity Index    673

Please find the next compound below.
Give the reported AChE Selectivity Index for this compound. `O=C(COc1ccccc1-c1nc(Cc2ccccc2)no1)N/N=C\c1ccccc1[N+](=O)[O-]`
36,571
